tested_target: 4'-phosphopantetheinyl transferase ffp (Bacillus subtilis)
test_details: qHTS Assay for Inhibitors of Bacillus subtilis Sfp phosphopantetheinyl transferase (PPTase);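 also: the enzyme is Sfp with the accession as filed and its product quenches rhodamine fluorescence; 0% = enzyme reaction without inhibitor and -100% = no enzyme wells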
condition_description: Biochemical Sfp PPTase activity
Among all 310,000 compounds or so, about 11,000 (3.5%) were called active. Roughly 4% stayed inconclusive and do not appear here. For the sample, actives were picked, then their nearest neighbours and some compounds at random.
measured_property: largest response in the series, negative = inhibition

// field: largest response in the series, negative = inhibition; key: `CCOC(=O)CNc1nc(Cl)nc(Nc2ccc(OC)cc2OC)n1` ; value = 11.3% (inactive)

// field: largest response in the series, negative = inhibition; key: `COc1cccc(OC)c1C(=O)Nc1ccc2c(c1)n(C)c(=O)n2C` ; value = 6.56% (inactive)

// field: largest response in the series, negative = inhibition; key: `O=C(CN(Cc1ccc(Br)cc1)S(=O)(=O)c1ccccc1)NCc1ccncc1` ; value = -4.2% (inactive)

// field: largest response in the series, negative = inhibition; key: `CCN(CC)S(=O)(=O)c1ccc(N2CCN(C)CC2)c(NC(=O)Nc2ccccc2F)c1` ; value = 9.85% (inactive)

// field: largest response in the series, negative = inhibition; key: `O=C(N/N=C/c1ccc([N+](=O)[O-])o1)c1cccc(S(=O)(=O)N2CCOCC2)c1` ; value = -9.66% (inactive)

// field: largest response in the series, negative = inhibition; key: `CCOC(=O)N1CCC(N2Cc3cccc(C(=O)Nc4ccc(S(=O)(=O)N(CC)CC)cc4)c3C2=O)CC1` ; value = -1.4% (inactive)

// field: largest response in the series, negative = inhibition; key: CC1C(=O)Nc2ccccc2N1C(=O)c1ccc(F)cc1F (stereo unspecified) ; value = 9.39% (inactive)

// field: largest response in the series, negative = inhibition; key: CC(NC(=O)Nc1cccc([N+](=O)[O-])c1)c1ccc2c(c1)OCO2 (stereo unspecified) ; value = -3.6% (inactive)

// field: largest response in the series, negative = inhibition; key: `Cn1c(N)c(C(=O)COC(=O)c2cc(C(F)(F)F)nc3c(C(F)(F)F)cccc23)c(=O)n(C)c1=O` ; value = 13.8% (inactive)

// field: largest response in the series, negative = inhibition; key: `O=C(N/N=C/c1cc(Cl)cc([N+](=O)[O-])c1O)C(O)(c1ccccc1)c1ccccc1` ; value = -0.479% (inactive)

// field: largest response in the series, negative = inhibition; key: CCc1ccc(CN(C)C(=O)C2CCC(=O)N(Cc3cccc(OC)c3)C2)nc1 (stereo unspecified) ; value = 14.7% (inactive)

// field: largest response in the series, negative = inhibition; key: `Cc1cnc(NC(=O)c2ccc(Cl)nc2)s1` ; value = 3.16% (inactive)

// field: largest response in the series, negative = inhibition; key: `CCOC(=O)c1c(NC(=S)Nc2ccccc2C)sc2c1CCC2` ; value = -14.6% (inactive)

// field: largest response in the series, negative = inhibition; key: `CCOC(=O)c1c(NC(=S)NC)sc2c1CCCC2` ; value = 7.02% (inactive)

// field: largest response in the series, negative = inhibition; key: Cc1ccc(SCC(CC(C)C)N2CCN(CCc3ccccc3)CCC2=O)cc1 (stereo unspecified) ; value = -29.9% (inactive)

// field: largest response in the series, negative = inhibition; key: `COC(=O)Nc1ccc(S(=O)(=O)Nc2cc(OC)nc(OC)n2)cc1` ; value = -10.4% (inactive)

// field: largest response in the series, negative = inhibition; key: `Cc1ccccc1C(=O)N1CCN(c2ccc(NC(=O)c3cccs3)cc2)CC1` ; value = 13.1% (inactive)

// field: largest response in the series, negative = inhibition; key: `CCOC(=O)c1c(NC(=O)Cn2nc(C(F)(F)F)cc2C)sc2c1CCC2` ; value = -2.66% (inactive)

// field: largest response in the series, negative = inhibition; key: `CC(C)(C)OC(=O)N1CCC(C(=O)NNC(=O)c2ccc(Cl)cc2Cl)CC1` ; value = 5.93% (inactive)

// field: largest response in the series, negative = inhibition; key: `COc1ccc(C(=O)NC2CCN(C(=O)Nc3ccc(F)cc3)CC2)cc1` ; value = -6.23% (inactive)

// field: largest response in the series, negative = inhibition; key: `CCOC(=O)c1c(NC(=O)CCC(=O)NCc2ccco2)sc2c1CCCC2` ; value = -8.63% (inactive)
